Assay: DNDI: Cytotoxicity against human MRC-5 lung fibroblast cells.
Conditions: IC50
pIC50: −log10 of the molar value.
valueType: pIC50

Cc1nnc(N/N=C/c2cc(Cl)ccc2O)nc1O; 5.32
Cc1cc(=O)[nH]c(-n2nc(C)cc2NC(=O)C2CCCC2)n1; < 4.98
COc1ccc(C(=O)O/N=C(\N)c2ccccn2)c(OC)c1; < 4.68
CN(CCO)CC(O)Cn1c2ccc(Cl)cc2c2cc(Cl)ccc21 (configuration not stated); < 4.68
NCC12CC3CC(C1)CC(c1ccc(Cl)c(Cl)c1)(C3)C2; < 4.38
COc1ccc(C(=O)C(C)N2C=CC=C/C2=C2\C=CC=CN2)cc1 (configuration not stated); < 4.38
CN(C)CCCC1c2ccccc2Sc2ccc(Cl)cc2C1O (configuration not stated); < 4.68
CCOC(=O)C1CCCN(Cc2cc(Cl)c3cccnc3c2O)C1 (configuration not stated); < 5.38
CC(C)(C)C(N)CCc1ccc(Cl)cc1Cl (configuration not stated); < 4.38
O=C1NC(=S)NC(=O)C1=Cc1c2ccccc2cc2ccccc12; < 4.38

# get_value(readout='pIC50', item= CC(C)Cc1nc(NCCC2CCCN2C)c2cnn(-c3ccccc3)c2n1 (configuration not stated) )
< 4.68

What value of pIC50 has been reported for the following compound? `Cc1cc(C)n(-c2ccc3c(Cl)cc(Cl)c(O)c3n2)n1`
< 4.38

----------
Measured IC50 accompanies every entry in the list below.
Experiment: DNDI: Cytotoxicity against human MRC-5 lung fibroblast cells.
Details: IC50

# example entries with known answers
Nc1ccc2c(c1)C(=O)C(=O)c1cc(N)ccc1-2; > 20.8 µM
c1ccc(Nc2nc(-c3ccccn3)cs2)nc1; > 10.4 µM
N=c1n(CCOc2ccccc2)c2ccccc2n1Cc1ccc(Cl)cc1; > 41.7 µM
N=c1n(Cc2ccccc2)c2ccccc2n1CC(O)COc1ccccc1 (stereo not drawn); > 41.7 µM
Cc1ccc(-c2cc(C(F)F)nc(SC3CC(=O)C4OCC3O4)n2)cc1 (stereo not drawn); > 41.7 µM
CC[n+]1ccccc1/C=C1\C=Cc2cc(C)ccc2N1C; > 20.8 µM

Quick one: IC50 for Clc1ccc(C(OCC2CCCCN2)c2ccc(Cl)cc2)cc1 (stereo not drawn) ?
> 4.17 µM

Give its IC50 value. Item: CC(=O)NC(c1ccccc1C)c1ccc2cccnc2c1O (stereo not drawn)
> 1.04 µM

Consider the compound shown here: `Nc1nc(NN2CCCCC2)nc(-c2cc(Cl)ccc2O)n1` What is its recorded IC50?
> 20.8 µM

Can you look up the measured IC50 of `CCn1c(=N)n(CCCOc2ccc(F)cc2)c2ccccc21` for me?
> 20.8 µM

What does the data say about its IC50? Entry: `CCc1ccccc1/N=C(\NCCN1CCOCC1)NC(=O)c1ccccc1`
> 41.7 µM

Give its IC50 value. Item: COC12C=CC(CC1)C1C(=O)c3cccc(O)c3C(=O)C12 (stereo not drawn)
> 20.8 µM

Field request: IC50 | item: `CN1/C(=C/C=C/c2ccc3ccccc3[n+]2C)C=Cc2ccccc21`
> 10.4 µM

Fill blank: measured IC50 of the compound `c1ccc2cc3c(NCCCNC4CCCCC4)ccnc3cc2c1` is ____.
4.93 µM

So what does the record say about IC50 for `CSC(=S)N/N=C(\C)c1ccncn1` ?
> 4.17 µM

Entry `COc1c(S(=O)(=O)c2ccc(C)c(F)c2)cnc2ccc(Cl)cc12` has what IC50?
> 20.8 µM

Need IC50, item `NC1=C(Cl)C(=O)c2ccccc2C1=O`
> 41.7 µM

I am curious: what IC50 value has been reported for `CNC1=C(N(C(C)=O)c2ccc(Br)cc2)C(=O)c2ccccc2C1=O` ?
4.88 µM

Would you mind telling me what IC50 value was observed for C=CCn1c(-c2cccs2)nn(C2CC(=O)C3OCC2O3)c1=S (stereo not drawn) ?
> 20.8 µM

Item under review: `Cc1cc(C2=CC(C)(C)NC(C)(C)C2)sc1C1=CC(C)(C)NC(C)(C)C1` . Reported IC50?
> 41.7 µM

Fill blank: measured IC50 of the compound CC(C)(C)C(=O)N1N=C(c2ccc(NS(C)(=O)=O)cc2)CC1c1ccco1 (stereo not drawn) is ____.
> 20.8 µM

Find the recorded IC50 belonging to `Nc1ccc2ccc3cccnc3c2n1` and report it.
> 4.17 µM

Any idea what IC50 was measured for `Cc1cc(C)c(OCCCCCCN2CCNCC2)c(Br)c1` ?
> 20.8 µM

Which value of IC50 has been reported for `CN(C)CCCNc1c2c(nc3ccccc13)CCC2` in the records?
5.76 µM

Could you tell me which IC50 is on file for `C/C(=N\NC(=O)CCCNc1cccc(C)c1)c1ccccn1` ?
> 10.4 µM

Value lookup for IC50; key = `Clc1ccc(OCCCCCN2CCNCC2)c(Cl)c1`
> 41.7 µM

I am curious: what IC50 value has been reported for `CN1/C(=C/c2cccc[n+]2C)Sc2ccccc21` ?
> 20.8 µM

Field request: IC50 | item: CC(Nc1nc(N2CCNCC2)nc2ccccc12)c1ccccc1 (stereo not drawn)
> 4.17 µM

What measured IC50 goes with `C=CCNCCCCOc1ccc(Br)cc1Cl` ?
> 41.7 µM

Given `O=C(O/N=C(/NCc1ccccc1)c1ccc(Cl)cc1)c1cccs1` , state its recorded IC50.
> 41.7 µM

Which IC50 value belongs to `CCN1C(C)=C(C)S/C1=C\c1ccc2cc(C)ccc2[n+]1C` ?
> 4.17 µM

----------
Experiment: DNDI: Cytotoxicity against human MRC-5 lung fibroblast cells.
Conditions: IC50
pIC50: −log10 of the molar value.
valueType: pIC50

CC1(C)CC(=O)C/C(=N/NC(=O)c2cc3ccccc3cc2O)C1; < 4.38

--- query ---
So what does the record say about pIC50 for Oc1c(C(c2ccccc2Cl)N2CCOCC2)ccc2cccnc12 (stereo not drawn) ?
< 4.68

----------
Assay: DNDI: Cytotoxicity against human MRC-5 lung fibroblast cells.
Conditions: IC50
pIC50: −log10 of the molar value.
valueType: pIC50

Past entries and their recorded results:
CCN1/C(=C/C=C/C2=[N+](C)c3ccc(C)cc3C2(C)C)C=Cc2ccccc21; < 5.38
Oc1c(C(Nc2nccs2)c2ccccn2)ccc2cccnc12 (centres undefined); 5.38
CC1(C)OC(C)(C)/C(=C/c2ccc3cccnc3c2)C1=O; < 4.68

For the compound NCC(c1ccc(Cl)cc1)c1ccc(-c2ccccc2)cc1 (centres undefined) , what pIC50 is on record?
< 4.38

----------
Assay: DNDI: Cytotoxicity against human MRC-5 lung fibroblast cells.
Settings: IC50
pIC50: −log10 of the molar value.
Parameter pIC50: see the listing below.

Below are worked cases with known answers.
CC[n+]1c(/C=C/c2ccc(N(C)C)cc2)ccn1-c1ccccc1; < 4.68
Cc1cccc(C)c1C(O)(CC(O)CNC(C)C)c1c(C)cccc1C (centres undefined); < 4.38
CCCCC(=O)NC(c1ccc(N(C)C)cc1)c1ccc2cccnc2c1O (centres undefined); < 4.68

Pending compound:
Entry under review: `CCOC(=O)c1c(CN2CCOCC2)oc2c1C(=O)C(=O)c1ccccc1-2` . Reported pIC50?
< 4.68

----------
# IC50 annotations
Assay: DNDI: Cytotoxicity against human MRC-5 lung fibroblast cells.
Conditions: IC50

CN(C)CCCOC1=Cc2ccccc2Cc2ccccc21; > 41.7 µM
Cc1cc2nc(N/C(N)=N/C(=O)NC3CCCCC3)nc(C)c2cc1C; > 41.7 µM

Now consider a different molecule.
Which IC50 reading was recorded for the molecule COC(=O)c1ccc(C2N=C(c3cccs3)CC(c3ccccc3O)N2)cc1 (stereo not drawn) ?
> 41.7 µM

----------
Some molecules, each annotated with its measured pIC50.
Experiment: DNDI: Cytotoxicity against human MRC-5 lung fibroblast cells.
Conditions: IC50
pIC50: −log10 of the molar value.

O=C(NNc1cccccc1=O)c1ccccc1; < 4.98

# pIC50 lookup, item `CCCC[n+]1cc(-c2ccccc2)nc(N2CCCCC2)n1`
< 4.38

Can you share its pIC50? I mean this molecule: `N=C(Nc1nc(-c2ccccn2)cc2ccccc12)c1cccc(Cl)c1`
< 4.38

For `O=C(NNC(=O)c1ccccn1)c1cccc(Br)c1` , what is its reported pIC50?
< 5.38

Need pIC50 of `CCOc1cc(CNCCc2cccc(Cl)c2)ccc1OC` , thanks.
< 4.68

----------
Parameter: IC50. Scope: all listed entries.
Assay: DNDI: Cytotoxicity against human MRC-5 lung fibroblast cells.
Settings: IC50

Example entries begin here.
Fc1ccc(C(=CCCn2ccnc2)c2ccc(F)cc2)cc1; 7.02 µM
CCS(=O)(=O)N1CCCc2ccc(NS(=O)(=O)c3ccccc3F)cc21; > 41.7 µM
O/N=C1C=C/C(=N\O)c2ncccc2/1; 4.89 µM
O=C1c2ccccc2C(=O)c2c1ccc1c(=O)o[nH]c21; > 41.7 µM
CCc1ccc2nc3nc(C)cc(C)c3c(N)c2c1; > 20.8 µM
C[n+]1ccccc1C=C1C=CN(c2ccc(Cl)cc2)C=C1; > 4.17 µM

Pending molecule:
Please give the measured IC50 for this molecule: `COc1nccnc1N/N=C/c1cc(Cl)cc(Cl)c1O`
> 20.8 µM
